The reader will find reported Km values listed item by item below.
Substrate: C[C@H](NC(=O)CCC(=O)O)C(=O)N[C@@H](C)C(=O)N1CCC[C@H]1C(=O)N[C@@H](Cc1ccccc1)C(=O)Nc1ccc([N+](=O)[O-])cc1
test_details: Kinetic parameters by release of p-nitroaniline from suc-AAPFpNA (absorbance at 410 nm, Michaelis-Menten fit)
Type: biochemical, Bacillus lentus
study_conditions: other: 0.1M Tris-HCL, pH 8.6, 25°C; pH 8.6; 25.0 °C

protein	Km [µM]
Bacillus lentus subtilisin variant N74D/S99G/V102W/S126G/N198A/N212S/T254P, SEQ ID NO: 5 (Lederbergia lenta; N198A/N212S/N74D/S126G/S99G/T254P/V102W) (protein, made in house; host or cells: protease deficient Bacillus subtilis 168) AQSVPWGISRVQAPAAHNRGLTGSGVKVAVLDTGISTHPDLNIRGGASFVPGEPSTQDGNGHGTHVAGTIAALDNSIGVLGVAPSAELYAVKVLGASGGGSWSSIAQGLEWAGNNGMHVANLSLGGPSPSATLEQAVNSATSRGVLVVAASGNSGAGSISYPARYANAMAVGATDQNNNRASFSQYGAGLDIVAPGVAVQSTYPGSTYASLSGTSMATPHVAGAAALVKQKNPSWSNVQIRNHLKNTATSLGSPNLYGSGLVNAEAATR	50
wild-type subtilisin of Bacillus lentus (GG36), WT, SEQ ID NO: 2 (Lederbergia lenta) (protein, made in house; host or cells: protease deficient Bacillus subtilis 168) AQSVPWGISRVQAPAAHNRGLTGSGVKVAVLDTGISTHPDLNIRGGASFVPGEPSTQDGNGHGTHVAGTIAALNNSIGVLGVAPSAELYAVKVLGASGSGSVSSIAQGLEWAGNNGMHVANLSLGSPSPSATLEQAVNSATSRGVLVVAASGNSGAGSISYPARYANAMAVGATDQNNNRASFSQYGAGLDIVAPGVNVQSTYPGSTYASLNGTSMATPHVAGAAALVKQKNPSWSNVQIRNHLKNTATSLGSTNLYGSGLVNAEAATR	630
Bacillus lentus subtilisin variant N74D/S99G/V102W/S126G/D191E/N198G/N212S/T254P, SEQ ID NO: 4 (Lederbergia lenta; … (protein, made in house; host or cells: protease deficient Bacillus subtilis 168) AQSVPWGISRVQAPAAHNRGLTGSGVKVAVLDTGISTHPDLNIRGGASFVPGEPSTQDGNGHGTHVAGTIAALDNSIGVLGVAPSAELYAVKVLGASGGGSWSSIAQGLEWAGNNGMHVANLSLGGPSPSATLEQAVNSATSRGVLVVAASGNSGAGSISYPARYANAMAVGATDQNNNRASFSQYGAGLEIVAPGVGVQSTYPGSTYASLSGTSMATPHVAGAAALVKQKNPSWSNVQIRNHLKNTATSLGSPNLYGSGLVNAEAATR	110
